ETS1 binding intensity reference
- experimental_system: ETS1 (UniProt P14921)
- Sequence: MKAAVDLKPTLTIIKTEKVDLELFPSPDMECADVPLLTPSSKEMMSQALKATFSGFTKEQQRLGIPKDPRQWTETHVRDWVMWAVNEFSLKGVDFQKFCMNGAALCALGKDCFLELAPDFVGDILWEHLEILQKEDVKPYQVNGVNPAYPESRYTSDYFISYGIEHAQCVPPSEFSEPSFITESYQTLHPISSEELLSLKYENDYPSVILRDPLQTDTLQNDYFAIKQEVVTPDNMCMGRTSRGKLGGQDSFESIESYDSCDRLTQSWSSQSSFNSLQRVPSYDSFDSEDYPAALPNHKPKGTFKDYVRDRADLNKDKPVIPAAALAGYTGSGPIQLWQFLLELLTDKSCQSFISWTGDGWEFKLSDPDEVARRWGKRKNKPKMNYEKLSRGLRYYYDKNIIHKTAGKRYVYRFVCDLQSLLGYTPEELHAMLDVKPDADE
- measurement_protocol: ETS1 binding intensity (PBM fluorescence) (arbitrary fluorescence units); higher = stronger binding
- test_settings: ETS1 concentration 10 nM
In all, about 2,700 sequences were measured (“arbitrary fluorescence units”: median about 4,100, highest 2% from about 54,000 on). What follows is part of a selection rich in the highest values, with near analogues and random picks from the rest.
Write no unit; give the number alone.

Please review the following examples before continuing.
Exam item: Send back ETS1 (UniProt P14921) ETS1 binding intensity of TGTAGGAGCTTCCTTGCAGCCTCAGGATGCCGAATT only.
Marked response: 517

Exam item: Provide ETS1 binding intensity, system ETS1 (UniProt P14921), entry TGAGCGCCGTGCCTTCCGGGTTCCGCCCTCCTGGGT
Marked response: 1430

Exam item: // fetch ETS1 binding intensity for AGTCTAGTTGCCAGGAAACAGGATGTGGGAGGGACA ; system: ETS1 (UniProt P14921)
Marked response: 3800

Exam item: Write down the reported ETS1 binding intensity (system: ETS1 (UniProt P14921)) of CGCCGCCGGAAGTGCCTGGCCTCACTTCCGGTCAGA
Marked response: 37200

Exam item: Given ATCTCACCTTCCTGGTGTCTGGGCTTCCGCAGCTTC , report its ETS1 binding intensity on ETS1 (UniProt P14921).
Marked response: 662

New cases:
Exam item: Identify measured ETS1 binding intensity obtained with ETS1 (UniProt P14921) for GTCACTTCCGGCCCCGAGTTCGAGCCGCTTCCGGGT .
Marked response: 115000

Exam item: Report ETS1 binding intensity under test system ETS1 (UniProt P14921) for CGGGCACTTCCGGCGCGAACCGCTACTTCCGGTGCG .
Marked response: 95900

Exam item: Give ETS1 (UniProt P14921) ETS1 binding intensity for the following sequence: TCAGTGGGCGGAAGAGGTGGCCCCGGATGCTGCGGC
Marked response: 1430

Exam item: Provide measured ETS1 binding intensity on ETS1 (UniProt P14921) for TGCCACATCCTGTCTTTTTACCTCCTTTCCTGCTTA please.
Marked response: 51200

Exam item: Using ETS1 (UniProt P14921) as the test system, report measured ETS1 binding intensity of TTCATTTCCGGCGGCGGAGGCGGCAGTTTCCTAAGC .
Marked response: 73000

* * *

- experimental_system: ETS1 (UniProt P14921)
- Sequence: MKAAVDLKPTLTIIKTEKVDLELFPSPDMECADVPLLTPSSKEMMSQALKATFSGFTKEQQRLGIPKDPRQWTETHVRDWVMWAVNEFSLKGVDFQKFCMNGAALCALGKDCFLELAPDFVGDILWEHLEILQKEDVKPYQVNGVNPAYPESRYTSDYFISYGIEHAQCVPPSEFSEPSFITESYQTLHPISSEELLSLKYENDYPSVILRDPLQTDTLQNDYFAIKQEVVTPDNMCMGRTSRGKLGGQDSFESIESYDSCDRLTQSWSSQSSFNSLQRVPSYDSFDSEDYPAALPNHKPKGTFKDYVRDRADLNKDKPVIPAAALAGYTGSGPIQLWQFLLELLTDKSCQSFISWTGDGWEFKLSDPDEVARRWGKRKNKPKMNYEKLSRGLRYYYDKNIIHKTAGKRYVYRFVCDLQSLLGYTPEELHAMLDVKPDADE
- measurement_protocol: ETS1 binding intensity (PBM fluorescence) (arbitrary fluorescence units); higher = stronger binding
- test_settings: ETS1 concentration 10 nM
Whole data set: some 2,700 sequences, median “arbitrary fluorescence units” near 4,100, cut for the highest 2% near 54,000. The list comes from a sample in which the highest values are over-represented; it also holds close analogues and randomly drawn sequences.
Would you mind labelling by ETS1 binding intensity? At or over 20000 is 1, under is 0.

Exam item: Entry CTCAACTTCCGGAGGCGGCAGACTTTTTCCGTCAAG : is its ETS1 binding intensity no less than 20000?
Marked response: 1

Exam item: Please check the record CCAAGCTGGTTTCCTCTCCGGTTTCCTCCGGGGTGG and state if its ETS1 binding intensity is at or above 20000.
Marked response: 0

Exam item: Is the recorded value of ETS1 binding intensity equal to or greater than 20000 for this sequence? CGGGAGCAGCGGAAGTCATTAACATCCGCGGTTGTG
Marked response: 0

Exam item: Does the reported ETS1 binding intensity for CTGTCACACAGGAAGACCACACAGGAAGACCAGGTG fall at or above the 20000 mark?
Marked response: 0

Exam item: Confirm if ETS1 binding intensity reported for the sequence TGCCAAGTTACACTTCCTGTTTCCTCTCTGTGTGCC is 20000 or above.
Marked response: 1

Exam item: # bool: ETS1 binding intensity of CGCCGGAAGTGGTCGCGGGTCGTTCTGCTTCCTGCC >= 20000
Marked response: 0

Exam item: Does the reported ETS1 binding intensity for GGCTGGGGCGGATGCCGGGGCTGTTCCGGGCCCTCC fall at or above the 20000 mark?
Marked response: 0

Exam item: Quick check, ETS1 binding intensity >= 20000? TTCCTCTCCTTTCCGCGAGACCTTCCGCGGTTATCC
Marked response: 0

New cases:
Exam item: Decide: ETS1 binding intensity of CGGCCTCTTCCGCGAGCCCGCGCGCCGGAAGTGGAA >= 20000?
Marked response: 0

Exam item: Given the entry TGTTATTGGACAACTTCCAGGAAAACATCCTCAAGA , answer whether its ETS1 binding intensity meets or surpasses 20000.
Marked response: 0

Exam item: For this sequence, is measured ETS1 binding intensity 20000 or higher? ACAGCATCCGGAGCGCCGACGCGGGACCGGAAGTGA
Marked response: 1

Exam item: Does the reported ETS1 binding intensity for TGCGCCCCGTGCTTCCTGCCATCCTGTGCTCTCTGC fall at or above the 20000 mark?
Marked response: 0

Exam item: Does the sequence GGCCGCTTCCGAGCGCCGCCAACCGCTTCCGGGTTC have recorded ETS1 binding intensity that is 20000 or more?
Marked response: 0

Exam item: Could you tell me if the measured ETS1 binding intensity of CGAGGCGGTCGCGGAAGTAGAGGAAGCCTTCGCGGT reaches 20000 or more?
Marked response: 0

Exam item: Assess whether reported ETS1 binding intensity for GGCGGCGACGGAAGTGAAGTCACTTCCGGGCTGGGG sits at 20000 or higher.
Marked response: 1

Exam item: # check: ETS1 binding intensity of CCCGGAGTTCCGCGCGGCGCCAGCCCTTCCGCCACG is greater than or equal to 20000
Marked response: 0

Exam item: In plain terms: is recorded ETS1 binding intensity at least 20000 for GGGTGCTTCCGGGGCAGCGCGCGCCACTTCCGACCT ?
Marked response: 1

Exam item: Does the sequence CGGGACAGGAAGTGTGGACAGGCTCCTTCCTGTTTG have recorded ETS1 binding intensity that is 20000 or more?
Marked response: 0

* * *

Documented ETS1 binding intensity across a set of sequences
- experimental_system: ETS1 (UniProt P14921)
- Sequence: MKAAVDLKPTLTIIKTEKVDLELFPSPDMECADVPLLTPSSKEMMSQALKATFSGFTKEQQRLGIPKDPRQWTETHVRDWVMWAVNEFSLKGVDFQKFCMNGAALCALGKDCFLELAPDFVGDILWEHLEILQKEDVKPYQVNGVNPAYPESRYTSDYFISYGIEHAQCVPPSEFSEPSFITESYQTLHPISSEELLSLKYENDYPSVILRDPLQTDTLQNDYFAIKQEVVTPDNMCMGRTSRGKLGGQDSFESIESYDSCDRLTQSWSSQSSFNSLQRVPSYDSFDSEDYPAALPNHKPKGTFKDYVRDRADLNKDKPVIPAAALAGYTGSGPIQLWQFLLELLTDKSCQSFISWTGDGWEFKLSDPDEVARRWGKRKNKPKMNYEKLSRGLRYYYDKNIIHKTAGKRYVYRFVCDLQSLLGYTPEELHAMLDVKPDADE
- measurement_protocol: ETS1 binding intensity (PBM fluorescence) (arbitrary fluorescence units); higher = stronger binding
- test_settings: ETS1 concentration 10 nM
The full ranking holds about 2,700 sequences; the median of “arbitrary fluorescence units” is about 4,100, and the highest 2% start at about 54,000. The list comes from a sample in which the highest values are over-represented; it also holds close analogues and randomly drawn sequences.
Give only the figure.

Here's what some known entries look like.
Exam item: Report measured ETS1 binding intensity; entry is CAAACACATCCTGTTTGCACTTGACTTCCTGTTTTG
Marked response: 37400

Exam item: Output ETS1 binding intensity of CGCGCCGGGTGTTTCCGCTACTTCCCTGCGGCGGGG
Marked response: 7930

Exam item: Read off the recorded ETS1 binding intensity for TGAAGACGGAAACCTGAGAACACCATTTCCTGTGCT
Marked response: 4470

Exam item: Supply recorded ETS1 binding intensity for GGACTTCCCAACTAGACAGACCAAATGAGGAAGTTG here.
Marked response: 880

Exam item: State its ETS1 binding intensity: GACAGTTTCCTCTTTCACACTAGAATATCCTGTTGT
Marked response: 10900

Exam item: Indicate its recorded ETS1 binding intensity; the sequence in question is CGGGCGGAAAGGGAGCTAGAGCATTCTGGGAAATGG
Marked response: 178

Continuing:
Exam item: Answer with the recorded ETS1 binding intensity for the sequence listed here: CTCTAGGTCTAACATCCCTCGGAAGTTCGTGCAGCG
Marked response: 175

Exam item: Look up ETS1 binding intensity of GGGGCCGGAAGCTTTCGGATAACAACTTCCGCTCGG and report it.
Marked response: 20100
